- Tested on: Escherichia coli VAL 5
- Format: cell-based
- Text: E. coli strains: NDM-1 (multidrug resistant strain) and VAL10, VAL5 and MAC21 strains show intermediante resistance to quinolones
Where a SMILES comes first, the peptide text is derived from it. Bridges are numbered along the chain shown (N, C = ends). [ ]: non-standard residue; d: D form. The star is where a group is joined. ξ: configuration not given here. dAoc(2) = CCCCCC[C@@H](N)C(=O)O; ξLac(3-iPr) = CC(C)CC(O)C(=O)O; Octanoyl = CCCCCCCC(=O)*; Dab = NCC[C@H](N)C(=O)O
measured-parameter: MIC (µg/mL)

compound | measured-parameter | measured
CCCCCCCC(=O)N[C@@H](CCN)C(=O)N[C@H](C(=O)N[C@@H](CCN)C(=O)N[C@H]1CSSC[C@H](C(N)=O)NC(=O)[C@H](CCN)NC(=O)[C@H](CCN)NC(=O)C(CC(C)C)OC(=O)[C@@H](CCCCCC)NC(=O)[C@H](CCN)NC1=O)[C@@H](C)O (stereo partly shown) [Example 4] (Octanoyl-[Dab]T[Dab]C[Dab][dAoc(2)][ξLac(3-iPr)][Dab][Dab][dC]-NH2; disulfide 4-10) | MIC | 1

---

- Tested on: Escherichia coli VAL 5
- Assay type: cell-based
Where a SMILES comes first, the peptide text is derived from it. Bridges are numbered along the chain shown (N, C = ends). [ ]: non-standard residue; d: D form. The star is where a group is joined. ξ: configuration not given here. dAoc(2) = CCCCCC[C@@H](N)C(=O)O; ξLac(3-iPr) = CC(C)CC(O)C(=O)O; Heptanoyl = CCCCCCC(=O)*; Nle = CCCC[C@H](N)C(=O)O; Dab = NCC[C@H](N)C(=O)O

molecule | MIC (µg/mL)
CCCCCCC(=O)N[C@@H](Cc1c[nH]cn1)C(=O)N[C@H](C(=O)N[C@@H](CCN)C(=O)N[C@H]1CSSC[C@H](C(N)=O)NC(=O)[C@H](Cc2c[nH]cn2)NC(=O)[C@H](CCN)NC(=O)[C@H](CCCC)NC(=O)[C@@H](CCCCCC)NC(=O)[C@H](CCN)NC1=O)[C@@H](C)O [Example 6] (Heptanoyl-HT[Dab]C[Dab][dAoc(2)][Nle][Dab]H[dC]-NH2; disulfide 4-10) | 8
CCCCCCC(=O)N[C@@H](CCN)C(=O)N[C@H](C(=O)N[C@@H](CCN)C(=O)N[C@H]1CSSC[C@H](C(N)=O)NC(=O)[C@H](CCN)NC(=O)[C@H](CCN)NC(=O)C(CC(C)C)OC(=O)[C@@H](CCCCCC)NC(=O)[C@H](CCN)NC1=O)[C@@H](C)O (stereo partly shown) [Example 2] (Heptanoyl-[Dab]T[Dab]C[Dab][dAoc(2)][ξLac(3-iPr)][Dab][Dab][dC]-NH2; disulfide 4-10) | 1
CCCCCC[C@@H](N)C(=O)N[C@H](C(=O)N[C@@H](CCN)C(=O)N[C@H]1CSSC[C@H](C(N)=O)NC(=O)[C@H](CCN)NC(=O)[C@H](CCN)NC(=O)C(CC(C)C)OC(=O)[C@@H](CCCCCC)NC(=O)[C@H](CCN)NC1=O)[C@@H](C)O (stereo partly shown) [Example 3] (H-[dAoc(2)]T[Dab]C[Dab][dAoc(2)][ξLac(3-iPr)][Dab][Dab][dC]-NH2; disulfide 4-10) | 2
CCCCCCC(=O)N[C@@H](CCN)C(=O)N[C@H](C(=O)N[C@@H](CCN)C(=O)N[C@H]1CSSC[C@H](C(N)=O)NC(=O)[C@H](CCN)NC(=O)[C@H](CCN)NC(=O)[C@H](CCCC)NC(=O)[C@@H](CCCCCC)NC(=O)[C@H](CCN)NC1=O)[C@@H](C)O [Example 1] (Heptanoyl-[Dab]T[Dab]C[Dab][dAoc(2)][Nle][Dab][Dab][dC]-NH2; disulfide 4-10) | 1

---

- System: Pseudomonas aeruginosa 38a
- Type: cell-based
- condition-info: 38a
Where a SMILES comes first, the peptide text is derived from it. Bridges are numbered along the chain shown (N, C = ends). [ ]: non-standard residue; d: D form. ξ: configuration not given here. dAoc(2) = CCCCCC[C@@H](N)C(=O)O; ξLac(3-iPr) = CC(C)CC(O)C(=O)O; Dab = NCC[C@H](N)C(=O)O

compound | MIC
CCCCCC[C@@H](N)C(=O)N[C@H](C(=O)N[C@@H](CCN)C(=O)N[C@H]1CSSC[C@H](C(N)=O)NC(=O)[C@H](CCN)NC(=O)[C@H](CCN)NC(=O)C(CC(C)C)OC(=O)[C@@H](CCCCCC)NC(=O)[C@H](CCN)NC1=O)[C@@H](C)O (stereo partly shown) [Example 3] (H-[dAoc(2)]T[Dab]C[Dab][dAoc(2)][ξLac(3-iPr)][Dab][Dab][dC]-NH2; disulfide 4-10) | 4 µg/mL

---

- Tested on: Escherichia coli ATCC 8739
- Assay type: cell-based
Where a SMILES comes first, the peptide text is derived from it. Bridges are numbered along the chain shown (N, C = ends). [ ]: non-standard residue; d: D form. The star is where a group is joined. ξ: configuration not given here. dAoc(2) = CCCCCC[C@@H](N)C(=O)O; ξLac(3-iPr) = CC(C)CC(O)C(=O)O; Octanoyl = CCCCCCCC(=O)*; Dab = NCC[C@H](N)C(=O)O

molecule | MIC (µg/mL)
CCCCCCCC(=O)N[C@@H](CCN)C(=O)N[C@H](C(=O)N[C@@H](CCN)C(=O)N[C@H]1CSSC[C@H](C(N)=O)NC(=O)[C@H](CCN)NC(=O)[C@H](CCN)NC(=O)C(CC(C)C)OC(=O)[C@@H](CCCCCC)NC(=O)[C@H](CCN)NC1=O)[C@@H](C)O (some centres unmarked) [Example 4] (Octanoyl-[Dab]T[Dab]C[Dab][dAoc(2)][ξLac(3-iPr)][Dab][Dab][dC]-NH2; disulfide 4-10) | 1

---

- System: Escherichia coli MAC21a
- Assay type: cell-based
Where a SMILES comes first, the peptide text is derived from it. Bridges are numbered along the chain shown (N, C = ends). [ ]: non-standard residue; d: D form. The star is where a group is joined. ξ: configuration not given here. dAoc(2) = CCCCCC[C@@H](N)C(=O)O; ξLac(3-iPr) = CC(C)CC(O)C(=O)O; Heptanoyl = CCCCCCC(=O)*; Nle = CCCC[C@H](N)C(=O)O; Octanoyl = CCCCCCCC(=O)*; Dab = NCC[C@H](N)C(=O)O
# Lookup of reported MIC keyed by entry
measured-parameter: MIC (µg/mL)

compound | modifier-sign | measured
CCCCCC[C@@H](N)C(=O)N[C@H](C(=O)N[C@@H](CCN)C(=O)N[C@H]1CSSC[C@H](C(N)=O)NC(=O)[C@H](CCN)NC(=O)[C@H](CCN)NC(=O)C(CC(C)C)OC(=O)[C@@H](CCCCCC)NC(=O)[C@H](CCN)NC1=O)[C@@H](C)O (some centres unmarked) [Example 3] (H-[dAoc(2)]T[Dab]C[Dab][dAoc(2)][ξLac(3-iPr)][Dab][Dab][dC]-NH2; disulfide 4-10) | = | 8
CCCCCCC(=O)N[C@@H](Cc1c[nH]cn1)C(=O)N[C@H](C(=O)N[C@@H](CCN)C(=O)N[C@H]1CSSC[C@H](C(N)=O)NC(=O)[C@H](Cc2c[nH]cn2)NC(=O)[C@H](CCN)NC(=O)[C@H](CCCC)NC(=O)[C@@H](CCCCCC)NC(=O)[C@H](CCN)NC1=O)[C@@H](C)O [Example 6] (Heptanoyl-HT[Dab]C[Dab][dAoc(2)][Nle][Dab]H[dC]-NH2; disulfide 4-10) | = | 8
CCCCCCC(=O)N[C@@H](CCN)C(=O)N[C@H](C(=O)N[C@@H](CCN)C(=O)N[C@H]1CSSC[C@H](C(N)=O)NC(=O)[C@H](CCN)NC(=O)[C@H](CCN)NC(=O)C(CC(C)C)OC(=O)[C@@H](CCCCCC)NC(=O)[C@H](CCN)NC1=O)[C@@H](C)O (some centres unmarked) [Example 2] (Heptanoyl-[Dab]T[Dab]C[Dab][dAoc(2)][ξLac(3-iPr)][Dab][Dab][dC]-NH2; disulfide 4-10) | = | 8
CCCCCCCC(=O)N[C@@H](CCN)C(=O)N[C@H](C(=O)N[C@@H](CCN)C(=O)N[C@H]1CSSC[C@H](C(N)=O)NC(=O)[C@H](CCN)NC(=O)[C@H](CCN)NC(=O)C(CC(C)C)OC(=O)[C@@H](CCCCCC)NC(=O)[C@H](CCN)NC1=O)[C@@H](C)O (some centres unmarked) [Example 4] (Octanoyl-[Dab]T[Dab]C[Dab][dAoc(2)][ξLac(3-iPr)][Dab][Dab][dC]-NH2; disulfide 4-10) | = | 8
CCCCCCC(=O)N[C@@H](CCN)C(=O)N[C@H](C(=O)N[C@@H](CCN)C(=O)N[C@H]1CSSC[C@H](C(N)=O)NC(=O)[C@H](CCN)NC(=O)[C@H](CCN)NC(=O)[C@H](CCCC)NC(=O)[C@@H](CCCCCC)NC(=O)[C@H](CCN)NC1=O)[C@@H](C)O [Example 1] (Heptanoyl-[Dab]T[Dab]C[Dab][dAoc(2)][Nle][Dab][Dab][dC]-NH2; disulfide 4-10) | < | 0.5
